Provenance of the data: PubChem BioAssay (NCI)

# System: OVCAR-5 ovarian
# Assay Procedure: NCI tumour cell line growth inhibition, 48 h
Measure: TGI

Lab request: please report TGI under test system OVCAR-5 ovarian for C=C1C(=O)O[C@H]2[C@H]1CC/C(COC(=O)NCc1cn(C)c3ccccc13)=C\CC[C@@]1(C)O[C@@H]21
3.96 µM

Lab request: please report TGI under test system OVCAR-5 ovarian for C=CCN1C(=O)/C(=C/c2ccc(OC)cc2)N=C1SC/C=C/C
> 100 µM

Lab request: please report TGI under test system OVCAR-5 ovarian for COC(=O)C1(C)CCC(c2ccc(C)cc2)=C(CC(=O)O)C1 (stereo unspecified)
> 100 µM

Lab request: please report TGI under test system OVCAR-5 ovarian for CCN(CC)c1c(C(=O)/C=C/c2ccc(OC)cc2)c(-c2ccccc2)nn(C)c1=O
28 µM

Lab request: please report TGI under test system OVCAR-5 ovarian for CN(C)CCN1C(=O)c2ccccc2N(C)c2ccccc21
> 100 µM

Lab request: please report TGI under test system OVCAR-5 ovarian for CCCCNc1nc(C#N)c(N)s1
> 100 µM

Lab request: please report TGI under test system OVCAR-5 ovarian for O=[N+]([O-])/C(C(Cl)=C(Cl)Cl)=C(\N1CCOCC1)n1nnc2ccccc21
44 µM

Lab request: please report TGI under test system OVCAR-5 ovarian for CCc1c2c([nH]c(=S)c1C#N)CCC2
> 100 µM

Lab request: please report TGI under test system OVCAR-5 ovarian for O=C(CC(=O)N(C(=O)/C=C\c1ccccc1)c1ccc(Cl)cc1)N1N=C(c2ccccc2)C(N=Nc2cccc([N+](=O)[O-])c2)C1=O (stereo unspecified)
> 100 µM

Lab request: please report TGI under test system OVCAR-5 ovarian for CC1=NN(C(=O)c2ccccc2O)C(=O)/C1=C/c1ccco1
> 100 µM

Lab request: please report TGI under test system OVCAR-5 ovarian for CCC1C2Cc3ccc(O)cc3C1(CC)CCN2C (stereo unspecified)
> 100 µM

Lab request: please report TGI under test system OVCAR-5 ovarian for CCOC(=O)C1=C(C)OC2(O)C=CC(O)=C3C(=O)N(c4ccccc4)C(=O)C312 (stereo unspecified)
> 100 µM

Lab request: please report TGI under test system OVCAR-5 ovarian for CC(C)OC(=O)c1ccc(NCc2cc(O)ccc2O)cc1Cl
26.6 µM

Lab request: please report TGI under test system OVCAR-5 ovarian for Cc1ccc2c(c1)[nH]c(=S)n2/C=C1\C(=O)Oc2ccccc2C1=O
> 100 µM

Lab request: please report TGI under test system OVCAR-5 ovarian for CN(CCCCCl)P(=O)(OCc1ccc([N+](=O)[O-])o1)OC[C@H]1O[C@@H](n2cc(F)c(=O)[nH]c2=O)C[C@@H]1O (stereo partly specified)
> 100 µM

Lab request: please report TGI under test system OVCAR-5 ovarian for COc1cc(CSc2nc3ccc(C)cc3c(=O)n2-c2ccccc2)cc(OC)c1OC
> 100 µM

Lab request: please report TGI under test system OVCAR-5 ovarian for C=C(C)C1=CCC[C@]2(C1)N=C(OC)[C@@H](C(C)C)N=C2OC
> 100 µM

Lab request: please report TGI under test system OVCAR-5 ovarian for O=C1/C(=C/c2cccc(Br)c2)CCc2ccccc21
28.3 µM

Lab request: please report TGI under test system OVCAR-5 ovarian for COC1(OC)c2no[n+]([O-])c2CCC1O (stereo unspecified)
> 100 µM

Lab request: please report TGI under test system OVCAR-5 ovarian for COc1ccc2c3c1O[C@]1(C)C34CCN(C)C(C2)C42C=C[C@@]1(OC)c1c(O)ccc(O)c12
> 100 µM

Lab request: please report TGI under test system OVCAR-5 ovarian for C=Cc1ccc(C)[n+](C[Si](C)(C)O[Si](C)(C)C)c1
> 100 µM

###

# Tested on: EKVX NSCLC
# Assay Procedure: NCI tumour cell line growth inhibition, 48 h
Could you please report measured TGI for the items listed next?
Provide the reading as a plain figure in µM.

Value lookup for TGI; key = CC(=O)C(=C(c1ccccc1)c1ccccc1)c1ccccc1
80.2

Value lookup for TGI; key = NC(N)=N/N=C/c1c(-c2ccc(Cl)cc2)nc2sccn12
31.2

Value lookup for TGI; key = CN(C)CC/C(=N\Nc1ccc([N+](=O)[O-])cc1)c1ccccc1
29.9

Value lookup for TGI; key = CC1=NN(C(=O)c2ccccc2O)C(=O)/C1=C/c1ccco1
44.2

###

# System: XF 498 CNS
# Assay Procedure: NCI tumour cell line growth inhibition, 48 h
Parameter threshold = 30 µM. Response is true when TGI meets or exceeds it, else false.

Check this molecule for TGI at or above 30 µM: C[C@]12CCC(=O)C=C1CC[C@@H]1[C@@H]2CC[C@]2(C)C(=O)NC(=O)C[C@@H]12
true

Check this molecule for TGI at or above 30 µM: Cn1cc2ccccc2c1-c1nc(F)nc(F)n1
true

Check this molecule for TGI at or above 30 µM: Clc1ccc(C2SCc3nc4ccccc4n32)c(Cl)c1 (configuration not stated)
true

Check this molecule for TGI at or above 30 µM: O=C(c1cccs1)N(C(=S)N1CCN(c2ccccn2)CC1)c1ccccc1
true

Check this molecule for TGI at or above 30 µM: C[C@]12C=CC(=O)C=C1CC[C@@H]1[C@@H]2CC[C@]2(C)OC(=O)CC[C@@H]12
true

Check this molecule for TGI at or above 30 µM: COc1cc(OC(=O)c2ccccc2)cc2c1C(=O)C=CC2=O
true

Check this molecule for TGI at or above 30 µM: Oc1ccccc1/C=C/c1csnn1
true

Check this molecule for TGI at or above 30 µM: O=C(Nc1ccc(Cl)cc1)c1cc2cc(N=Nc3ccccc3Cl)ccc2oc1=O
true

Check this molecule for TGI at or above 30 µM: CCOC(=O)NC(=O)c1cn(CCOC(=O)CCCCCCCCC(=O)OCCn2cc(C(=O)NC(=O)OCC)c(=O)[nH]c2=O)c(=O)[nH]c1=O
true

Check this molecule for TGI at or above 30 µM: COc1ccc(Br)c(N/N=C2\CCCNC2=O)c1
true

Check this molecule for TGI at or above 30 µM: COc1cc2c(c(OC)c1OC)-c1ccc(SC)c(=O)cc1C(CO)C2 (configuration not stated)
false

Check this molecule for TGI at or above 30 µM: CC(C)C1CC[C@@H](C)C[C@@]1(O)CC(N)=O (some centres not stated)
false

###

# System: OVCAR-3 ovarian
# Assay Procedure: NCI tumour cell line growth inhibition, 48 h
Measure: TGI (µM)
Provide the reading as a plain figure in µM.

Value lookup for TGI; key = O=C1/C(=C/c2cccc(F)c2)CCCc2ccccc21
28.6

Value lookup for TGI; key = COc1ccc2nc3cccc([N+](=O)[O-])c3c(NCCCCCC(=O)O)c2c1
2.64

Value lookup for TGI; key = C=C(C)C(=O)O[C@H]1CC(=C)[C@@H]2C[C@H](O)[C@](O)(CCl)[C@@H]2[C@H]2OC(=O)C(=C)[C@@H]21
4.38

Value lookup for TGI; key = COc1cnc2c(c1)C(=O)c1c-2n(CCCn2ccnc2)c(=O)c2cc(F)ccc12
0.382

###

# Test system: TK-10 renal
# Assay Procedure: NCI tumour cell line growth inhibition, 48 h
Measure: TGI

Value lookup for TGI; key = Cn1cc2ccccc2c1-c1nc(F)nc(F)n1
> 100 µM

Value lookup for TGI; key = C=CCOc1cccc(C2(O)c3ccccc3C3=NCCCN32)c1 (stereo not given)
> 100 µM

Value lookup for TGI; key = COc1ccc2nc3cccc([N+](=O)[O-])c3c(NCCCCCC(=O)O)c2c1
17.6 µM

Value lookup for TGI; key = C/C(=N\NS(=O)(=O)c1ccc(C)cc1)C(CN1CCCCC1)C(c1ccccc1)c1c(O)c2ccccc2oc1=O (stereo not given)
> 100 µM

Value lookup for TGI; key = Cn1c2ccccc2c2c(-c3ccccc3)cc3c(c21)C(=O)C=CC3=O
3.4 µM

Value lookup for TGI; key = COC(=O)C1(CCC(C)=O)CCCCCC1=O (stereo not given)
> 100 µM

Value lookup for TGI; key = CC(=O)OCC1OC(n2cnc(C(N)=S)c2N)C(OC(C)=O)C1OC(C)=O (stereo not given)
> 100 µM

Value lookup for TGI; key = O=C1CCC2C(O)c3cc4c(cc3C(c3ccc5c(c3)OCO5)N12)OCO4 (stereo not given)
> 100 µM

Value lookup for TGI; key = C=C1CCC2C3(C)COC(c4ccc(N(C)C)cc4)OC3CCC2(C)C1C/C=C1/C(=O)OCC1O (stereo not given)
21 µM

Value lookup for TGI; key = COc1ccc2c(c1)c(=O)oc1cc(OC/C(C)=N\O)ccc12
> 100 µM

###

# Test system: SW-620 colon
# Assay Procedure: NCI tumour cell line growth inhibition, 48 h
Measure: TGI

Value lookup for TGI; key = COC1=C(OC)C(=O)C(Cc2c(Cl)nc3sc(C)cn23)=C(C)C1=O
47.8 µM

Value lookup for TGI; key = O=C(O)c1nc2cc(C(F)(F)F)ccc2nc1Nc1ccc(F)cc1
68.8 µM

Value lookup for TGI; key = CN(C)CC/C(=N\Nc1ccc([N+](=O)[O-])cc1)c1ccccc1
26.5 µM

Value lookup for TGI; key = O=C(ON=C1c2ccccc2C(Br)C(Br)c2ccccc21)c1cc([N+](=O)[O-])cc([N+](=O)[O-])c1 (stereo not given)
40.5 µM

Value lookup for TGI; key = O=C1C(Cl)C2(CC(/C=C/c3ccccc3Cl)=NN2c2cccc(S(=O)(=O)O)c2)N1c1nc2ccccc2s1 (stereo not given)
> 100 µM
